System: Staphylococcus aureus
assay_protocol: Antibacterial activity against Staphylococcus aureus ATCC25923 incubated for 16 to 20 hrs by broth microdilution method
Assay type: functional
details: time 16-20 hrs
As shown below, each of these compounds has a reported MIC value.
A bare number is not enough; add the unit after it.

CC[C@H]1OC(=O)C[C@@H](O)[C@H](C)[C@@H](O[C@@H]2O[C@H](C)[C@@H](O)[C@H](N(C)C)[C@H]2O)[C@@H](CCNCc2cn(-c3cnc4ccccc4c3)nn2)C[C@@H](C)C(=O)/C=C/C(C)=C/[C@@H]1CNc1ccc(Br)cc1 has a reported MIC of 2 µg/mL

The value of MIC measured for the compound CC[C@H]1OC(=O)C[C@@H](O)[C@H](C)[C@@H](O[C@@H]2O[C@H](C)[C@@H](O)[C@H](N(C)C)[C@H]2O)[C@@H](CCNCc2cn(-c3cnc4ccccc4c3)nn2)C[C@@H](C)C(=O)/C=C/C(C)=C/[C@@H]1CN1CCCCCCC1 turned out to be 0.5 µg/mL

Recorded MIC (compound CC[C@H]1OC(=O)C[C@@H](O)[C@H](C)[C@@H](O[C@@H]2O[C@H](C)[C@@H](O)[C@H](N(C)C)[C@H]2O)[C@@H](CCN(C)Cc2cn(-c3cnc4ccccc4c3)nn2)C[C@@H](C)C(=O)/C=C/C(C)=C/[C@@H]1CNCc1ccc(Br)cc1 ): 4 µg/mL

get_value(item= CC[C@H]1OC(=O)C[C@@H](O)[C@H](C)[C@@H](O[C@@H]2O[C@H](C)[C@@H](O)[C@H](N(C)C)[C@H]2O)[C@@H](CCN(C)Cc2cn(-c3cnc4ccccc4c3)nn2)C[C@@H](C)C(=O)/C=C/C(C)=C/[C@@H]1CI , readout=MIC) returns 2 µg/mL

* * *

Tested on: Staphylococcus aureus
assay_protocol: Antibacterial activity against Staphylococcus aureus ATCC25923 incubated for 16 to 20 hrs by broth microdilution method
Assay type: functional
details: time 16-20 hrs
MIC: recorded values
Could you give me the number in µg/mL? Just the number is fine.

Some solved entries appear below for comparison.
CCCNC[C@H]1/C=C(C)/C=C/C(=O)[C@H](C)C[C@H](CCN(Cc2cn(-c3cnc4ccccc4c3)nn2)c2ccccc2)[C@H](O[C@@H]2O[C@H](C)[C@@H](O)[C@H](N(C)C)[C@H]2O)[C@@H](C)[C@H](O)CC(=O)O[C@@H]1CC: 2
CC[C@H]1OC(=O)C[C@@H](O)[C@H](C)[C@@H](O[C@@H]2O[C@H](C)[C@@H](O[C@H]3C[C@@](C)(O)[C@@H](O)[C@H](C)O3)[C@H](N(C)C)[C@H]2O)[C@@H](CC=O)C[C@@H](C)C(=O)/C=C/C(C)=C/[C@@H]1CO[C@@H]1O[C@H](C)[C@@H](O)[C@@H](OC)[C@H]1OC: 0.5
CC[C@H]1OC(=O)C[C@@H](O)[C@H](C)[C@@H](O[C@@H]2O[C@H](C)[C@@H](O)[C@H](N(C)C)[C@H]2O)[C@@H](CCNCc2cn(-c3cnc4ccccc4c3)nn2)C[C@@H](C)C(=O)/C=C/C(C)=C/[C@@H]1CN(C)Cc1ccccc1: 0.5
CCCN(C)C[C@H]1/C=C(C)/C=C/C(=O)[C@H](C)C[C@H](CCN(Cc2cn(-c3cnc4ccccc4c3)nn2)c2ccccc2)[C@H](O[C@@H]2O[C@H](C)[C@@H](O)[C@H](N(C)C)[C@H]2O)[C@@H](C)[C@H](O)CC(=O)O[C@@H]1CC: 0.5

Documented MIC of CC[C@H]1OC(=O)C[C@@H](O)[C@H](C)[C@@H](O[C@@H]2O[C@H](C)[C@@H](O)[C@H](N(C)C)[C@H]2O)[C@@H](CCNCc2cn(-c3cnc4ccccc4c3)nn2)C[C@@H](C)C(=O)/C=C/C(C)=C/[C@@H]1CO : 0.25

// sample CC[C@H]1OC(=O)C[C@@H](O)[C@H](C)[C@@H](O[C@@H]2O[C@H](C)[C@@H](O)[C@H](N(C)C)[C@H]2O)[C@@H](CC=O)C[C@@H](C)C(=O)/C=C/C(C)=C/[C@@H]1CO , its MIC was 0.5

For CC[C@H]1OC(=O)C[C@@H](O)[C@H](C)[C@@H](O[C@@H]2O[C@H](C)[C@@H](O)[C@H](N(C)C)[C@H]2O)[C@@H](CCNCc2cn(-c3cnc4ccccc4c3)nn2)C[C@@H](C)C(=O)/C=C/C(C)=C/[C@@H]1CI the molecule record lists MIC as 2

Per the record, CC[C@H]1OC(=O)C[C@@H](O)[C@H](C)[C@@H](O[C@@H]2O[C@H](C)[C@@H](O)[C@H](N(C)C)[C@H]2O)[C@@H](CCNCc2cn(-c3cnc4ccccc4c3)nn2)C[C@@H](C)C(=O)/C=C/C(C)=C/[C@@H]1CN1CCCCCC1 has MIC of 0.5

Record CC[C@H]1OC(=O)C[C@@H](O)[C@H](C)[C@@H](O[C@@H]2O[C@H](C)[C@@H](O)[C@H](N(C)C)[C@H]2O)[C@@H](CCN2C[C@H](C)C[C@H](C)C2)C[C@@H](C)C(=O)/C=C/C(C)=C/[C@@H]1CO[C@@H]1O[C@H](C)[C@@H](O)[C@@H](OC)[C@H]1OC . Reported MIC: 1

MIC measured on CC[C@H]1OC(=O)C[C@@H](O)[C@H](C)[C@@H](O[C@@H]2O[C@H](C)[C@@H](O)[C@H](N(C)C)[C@H]2O)[C@@H](CCNCc2cn(-c3cnc4ccccc4c3)nn2)C[C@@H](C)C(=O)/C=C/C(C)=C/[C@@H]1CNCc1ccc(Cl)cc1 = 1

Please fill in: MIC reported for CC[C@H]1OC(=O)C[C@@H](O)[C@H](C)[C@@H](O[C@@H]2O[C@H](C)[C@@H](O)[C@H](N(C)C)[C@H]2O)[C@@H](CCNCc2cn(-c3cnc4ccccc4c3)nn2)C[C@@H](C)C(=O)/C=C/C(C)=C/[C@@H]1CN(C)CC = 0.5

Given item CC[C@H]1OC(=O)C[C@@H](O)[C@H](C)[C@@H](O[C@@H]2O[C@H](C)[C@@H](O)[C@H](N(C)C)[C@H]2O)[C@@H](CCN(C)Cc2cn(-c3cnc4ccccc4c3)nn2)C[C@@H](C)C(=O)/C=C/C(C)=C/[C@@H]1CNc1ccc(Br)cc1 , the value recorded as its MIC is 2

CC[C@H]1OC(=O)C[C@@H](O)[C@H](C)[C@@H](O[C@@H]2O[C@H](C)[C@@H](O)[C@H](N(C)C)[C@H]2O)[C@@H](CCN2CCCCC2)C[C@@H](C)C(=O)/C=C/C(C)=C/[C@@H]1CN1CCCCC1 has a reported MIC of 16

For CC[C@H]1OC(=O)C[C@@H](O)[C@H](C)[C@@H](O[C@@H]2O[C@H](C)[C@@H](O)[C@H](N(C)C)[C@H]2O)[C@@H](CCNCc2cn(-c3cnc4ccccc4c3)nn2)C[C@@H](C)C(=O)/C=C/C(C)=C/[C@@H]1CN(C)C(C)C the molecule record lists MIC as 0.5

The reported MIC of the molecule CC[C@H]1OC(=O)C[C@@H](O)[C@H](C)[C@@H](O[C@@H]2O[C@H](C)[C@@H](O)[C@H](N(C)C)[C@H]2O)[C@@H](CCN(Cc2cn(-c3cnc4ccccc4c3)nn2)c2ccccc2)C[C@@H](C)C(=O)/C=C/C(C)=C/[C@@H]1CI was 2

Note to self: MIC recorded for CC[C@H]1OC(=O)C[C@@H](O)[C@H](C)[C@@H](O[C@@H]2O[C@H](C)[C@@H](O)[C@H](N(C)C)[C@H]2O)[C@@H](CCN(C)Cc2cn(-c3cnc4ccccc4c3)nn2)C[C@@H](C)C(=O)/C=C/C(C)=C/[C@@H]1CNCc1cc(F)cc(F)c1 was 1
